EC50: recorded values
# test-system: human GcgR (Homo sapiens)
# Sequence (P47871 26-477): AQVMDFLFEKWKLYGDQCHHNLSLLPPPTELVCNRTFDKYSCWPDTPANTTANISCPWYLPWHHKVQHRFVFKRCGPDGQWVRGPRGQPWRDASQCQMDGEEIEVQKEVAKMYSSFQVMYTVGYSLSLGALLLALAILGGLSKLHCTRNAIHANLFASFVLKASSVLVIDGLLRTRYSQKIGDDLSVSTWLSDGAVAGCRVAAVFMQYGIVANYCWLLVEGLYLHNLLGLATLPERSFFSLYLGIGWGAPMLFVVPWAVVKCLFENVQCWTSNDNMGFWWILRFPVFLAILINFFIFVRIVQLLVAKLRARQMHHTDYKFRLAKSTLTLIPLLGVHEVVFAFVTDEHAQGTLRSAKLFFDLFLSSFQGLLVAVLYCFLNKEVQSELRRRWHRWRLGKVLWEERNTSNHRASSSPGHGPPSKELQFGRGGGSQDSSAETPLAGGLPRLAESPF
# experimental-protocol: Functional cAMP activity in the presence of 1% HSA
# Format: cell-based
# condition-label: read-out: cAMP Rel EC50, hGcgR
Starred links: 1 amine or outer side, 2 acyl side, 3 side chain; linkers in the order of their positions; H or OH if unused. Non-standard residues stand in square brackets, D forms with d. Groups on a side chain read outwards from the residue. *: point of attachment. C20 diacid = O=C(O)CCCCCCCCCCCCCCCCCCC(=O)*; C18 diacid = O=C(O)CCCCCCCCCCCCCCCCC(=O)*; γGlu = O=C(O)[C@H](CCC(=O)[*:2])N[*:1]; αMe4Pal = C[C@](N)(Cc1ccncc1)C(=O)O; αMeY = C[C@](N)(Cc1ccc(O)cc1)C(=O)O; 4Pal = N[C@@H](Cc1ccncc1)C(=O)O; αMeL = CC(C)C[C@](C)(N)C(=O)O; Orn = NCCC[C@H](N)C(=O)O; AEEA = NCCOCCOCC(=O)O; Aib = CC(C)(N)C(=O)O
Hi! Could you send only the number? It should be in µM, unit omitted.

Past entries and their recorded results:
- substance: "H-Y[Aib]QGTFTSD[4Pal]S[Orn][αMeL]LD[Orn]K([γGlu-γGlu-C18 diacid])AQ[αMe4Pal][Orn]FIE[αMeY]LIEGGPSSGAPPPSGSEE-NH2 [Example 974]"
  attribute-measured: "EC50"
  readout-value: 0.87
- substance: "H-Y[Aib]QGTFTSDYSI[αMeL]LDKIAAK([AEEA-AEEA-γGlu-C20 diacid])QFVEYLIAGGPSSGEPPPSEG-NH2 [Example 312]"
  attribute-measured: "EC50"
  readout-value: 4.07

// switching to the query substance
// returns reported EC50 for input H-Y[Aib]QGTFTSDFSK[αMeL]LDKK([AEEA-γGlu-C18 diacid])AQ[Aib]AFIEYLIE[Aib]GESSGAPPPSGS-NH2 [Example 216]
0.895

* * *

# test-system: hGIPR (Homo sapiens, UniProt P48546)
# Sequence (P48546 22-466): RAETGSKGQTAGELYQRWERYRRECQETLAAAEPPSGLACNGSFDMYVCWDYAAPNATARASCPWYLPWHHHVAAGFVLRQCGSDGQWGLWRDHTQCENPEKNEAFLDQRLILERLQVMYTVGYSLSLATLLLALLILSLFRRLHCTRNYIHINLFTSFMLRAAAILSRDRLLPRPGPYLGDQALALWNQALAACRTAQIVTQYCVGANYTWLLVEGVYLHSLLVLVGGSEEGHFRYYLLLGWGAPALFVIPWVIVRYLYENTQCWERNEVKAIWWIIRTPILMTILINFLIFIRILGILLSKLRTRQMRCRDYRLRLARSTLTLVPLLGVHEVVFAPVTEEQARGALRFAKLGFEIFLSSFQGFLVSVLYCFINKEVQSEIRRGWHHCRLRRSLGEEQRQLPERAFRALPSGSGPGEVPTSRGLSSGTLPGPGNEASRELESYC
# experimental-protocol: Functional cAMP activation in the presence of 0.1% casein (no HSA);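 note: intracellular cAMP rise after 30 min at 37 °C read by HTRF against a standard curve, scaled between buffer alone (0%) and top control ligand concentration (100%), four-parameter fit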
# Format: cell-based
# condition-label: in the presence of 0.1% casein (no HSA); geometric mean; read-out: Relative cAMP EC50, hGIPR
Starred links: 1 amine or outer side, 2 acyl side, 3 side chain; linkers in the order of their positions; H or OH if unused. Non-standard residues stand in square brackets, D forms with d. Groups on a side chain read outwards from the residue. *: point of attachment. C20 diacid = O=C(O)CCCCCCCCCCCCCCCCCCC(=O)*; C18 diacid = O=C(O)CCCCCCCCCCCCCCCCC(=O)*; αMePhe(2-F) = C[C@](N)(Cc1ccccc1F)C(=O)O; γGlu = O=C(O)[C@H](CCC(=O)[*:2])N[*:1]; αMe4Pal = C[C@](N)(Cc1ccncc1)C(=O)O; αMeY = C[C@](N)(Cc1ccc(O)cc1)C(=O)O; αMeF = C[C@](N)(Cc1ccccc1)C(=O)O; 4Pal = N[C@@H](Cc1ccncc1)C(=O)O; αMeL = CC(C)C[C@](C)(N)C(=O)O; αMeS = C[C@](N)(CO)C(=O)O; Orn = NCCC[C@H](N)C(=O)O; AEEA = NCCOCCOCC(=O)O; Aib = CC(C)(N)C(=O)O
Classes are defined on EC50 with ranges low bracket = under 90 pM, middle bracket = from 90 pM up to 200 pM, high bracket = 200 pM and over

- substance: "H-Y[Aib]QGT[αMePhe(2-F)]TSD[4Pal][αMeS]I[αMeL]LD[Orn]K([AEEA-γGlu-γGlu-C18 diacid])AQ[αMe4Pal]EFI[dE][αMeY]LIEGGPSSGEPPPSGE-NH2 [Example 1177]"
  test-system: "hGIPR (Homo sapiens, UniProt P48546)"
  classification: "low bracket"
- substance: "H-Y[Aib]QGTFTSD[4Pal]SQ[αMeL]LDKK([AEEA-γGlu-C18 diacid])AQ[αMe4Pal]AFIEYLLAGGPSSGAPPPSGSEE-NH2 [Example 1037]"
  test-system: "hGIPR (Homo sapiens, UniProt P48546)"
  classification: "high bracket"
- substance: "H-Y[Aib]QGTFTSDFSK[αMeL]LDKK([AEEA-γGlu-C18 diacid])AQ[Aib]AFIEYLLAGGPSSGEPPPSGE-NH2 [Example 23]"
  test-system: "hGIPR (Homo sapiens, UniProt P48546)"
  classification: "middle bracket"

Quick check: band for H-Y[Aib]QGT[αMeF]TSD[4Pal][αMeS]I[αMeL]LD[Orn]K([γGlu-γGlu-C18 diacid])AQ[αMe4Pal]EFI[dE][αMeY]LIEGGPSSGEPPPSGE-NH2 [Example 1171]
low bracket

Do the same for H-Y[Aib]QGTFTSD[4Pal][αMeS]I[αMeL]LD[Orn]K([dE-γGlu-C18 diacid])AQ[αMe4Pal]QFIQ[αMeY]LIE[Aib]GPSSGAPPPSGGGE-NH2 [Example 1136] please
low bracket

Do the same for H-Y[Aib]QGTFTSDYSK[αMeL]LDKK([AEEA-γGlu-C20 diacid])AQQAFIEYLIAGGPSSGEPPPSGD-NH2 [Example 337] please
high bracket

Do the same for H-Y[Aib]QGTFTSD[4Pal]SK[αMeL]LDKK([AEEA-γGlu-C18 diacid])AQ[Aib]AFIEYLIE[Aib]GPSSGAPPPSGSEE-NH2 [Example 902] please
middle bracket

Do the same for H-Y[Aib]QGTFTSD[4Pal]SQ[αMeL]LD[Orn]K([Glu-γGlu-C18 diacid])AQ[αMe4Pal]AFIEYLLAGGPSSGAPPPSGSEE-NH2 [Example 1057] please
middle bracket
